Tested on: U2OS
Test: Multiplex assay against U2OS
Assay type: toxicity, cell-based
Conditions: human, 24 h, 1 µM, compound concentration 1 uM, replicate 1
READOUT: Population Membrane Permeable-Phenotype (%)
Write the number in % without appending the unit.

[Q] Report Population Membrane Permeable-Phenotype (%) for Cl.O=C(c1ccc(Nc2nccc(-c3cc4ccccc4s3)n2)cc1)N1CCC(N2CCCC2)CC1 please.
[A] 19

[Q] Now consider Cc1ccc(C(=O)Nc2cccc(C(F)(F)F)c2)cc1Nc1nc(-c2cccnc2)nc2c1cnn2C .
[A] 2

[Q] Now consider Cc1cn(-c2cc(NC(=O)c3ccc(C)c(Nc4nccc(-c5cccnc5)n4)c3)cc(C(F)(F)F)c2)cn1 .
[A] 14

[Q] Now consider Cl.Oc1ccc2c3c1O[C@H]1c4[nH]c5c(c4C[C@@]4(O)[C@@H](C2)N(CC2CC2)CC[C@]314)C[C@@]1(O)[C@H]2Cc3ccc(O)c4c3[C@@]1(CCN2CC1CC1)[C@H]5O4 .
[A] 6

====

Tested on: U2OS
Test: Multiplex assay against U2OS
Type: toxicity, cell-based
Conditions: human, 24 h, 1 µM, compound concentration 1 uM, replicate 2
READOUT: Population Normal (%)
Write the number in % without appending the unit.

[Q] Report Population Normal (%) for CCNc1cc(N[C@H]2CC[C@H](O)CC2)nc(Nc2ccc3c(ccn3Cc3ccccc3)c2)n1 please.
[A] 90

[Q] Now consider Cl.O=C(c1ccc(Nc2nccc(-c3cc4ccccc4s3)n2)cc1)N1CCC(N2CCCC2)CC1 .
[A] 85

[Q] Now consider O=C(Cc1ccc(-c2ccc(OCCN3CCOCC3)cc2)cn1)NCc1ccccc1 .
[A] 90

[Q] Now consider O=C(Nc1ccc(Cl)cc1)Nc1cccc(-c2cccc(N3CCCC3)n2)c1 .
[A] 93

[Q] Now consider C=C1/C(=C\C=C2/CCC[C@]3(C)[C@@H]([C@H](C)/C=C/[C@H](C)C(C)C)CC[C@@H]23)C[C@@H](O)C[C@@H]1O .
[A] 95

[Q] Now consider Cc1ccc2nc(NCCN)c3ncc(C)n3c2c1.O=C(O)C(F)(F)F.O=C(O)C(F)(F)F .
[A] 91

====

Test system: Fibroblast
Assay: Multiplex assay against human fibroblast
Type: toxicity, cell-based
Conditions: 24 h, 10 µM, compound concentration 10 uM, replicate 2
READOUT: Population Hoechst High Intensity Objects (%)
Write the number in % without appending the unit.

[Q] Fill in the recorded Population Hoechst High Intensity Objects (%) for this compound, with Fibroblast as test system: CCCS(=O)(=O)Nc1ccc(F)c(C(=O)c2c[nH]c3ncc(Cl)cc23)c1F
[A] 31

[Q] Now consider O=C(Nc1ccc(Cl)cc1)Nc1cccc(-c2cccc(N3CCCC3)n2)c1 .
[A] 25

[Q] Now consider CCn1c(=O)c(-c2ccc(-c3cncs3)cc2Cl)cc2cnc(Nc3ccc(N4CCN(C)CC4)cc3)nc21 .
[A] 3

[Q] Now consider O=C(Nc1cccnn1)N1CCC(=Cc2cccc(Oc3ccc(C(F)(F)F)cn3)c2)CC1 .
[A] 23

[Q] Now consider CCOc1cc(C(=O)N2CCC(N3CCN(C)CC3)CC2)ccc1Nc1ncc2c(n1)N(C1CCCC1)c1ccccc1C(=O)N2C .
[A] 11

[Q] Now consider O=C1N/C(=N/c2ccccc2F)S/C1=C\c1ccc(C(=O)O)cc1 .
[A] 5

[Q] Now consider COCC(=O)NC/C=C/c1ccc2ncnc(Nc3ccc(Oc4ccc(C)nc4)c(C)c3)c2c1 .
[A] 11

[Q] Now consider Cc1ccc2nc(NCCN)c3ncc(C)n3c2c1.O=C(O)C(F)(F)F.O=C(O)C(F)(F)F .
[A] 39

[Q] Now consider NC(=O)c1cccc(-c2cc(Nc3ccc(OC(F)(F)F)cc3)ncn2)c1 .
[A] 31

[Q] Now consider CN1CCC(=C2c3ccccc3CC(=O)c3sccc32)CC1.O=C(O)/C=C/C(=O)O [KETOTIFEN FUMARATE] .
[A] 2

[Q] Now consider COc1cc2ncnc(Nc3ccc(F)c(Cl)c3)c2cc1NC(=O)/C=C/CN1CCCCC1 [DACOMITINIB ANHYDROUS] .
[A] 30

[Q] Now consider CCOC(=O)c1c(C)[nH]c2ccc3c(c12)CN1CCc2cc(OC)ccc2C1O3 (stereo not drawn) .
[A] 11

[Q] Now consider O=C1NC(=O)C(c2cnc3ccccn23)=C1c1cn2c3c(cc(F)cc13)CN(C(=O)N1CCCCC1)CC2 .
[A] 4

[Q] Now consider Cl.Oc1ccc2c3c1O[C@H]1c4[nH]c5c(c4C[C@@]4(O)[C@@H](C2)N(CC2CC2)CC[C@]314)C[C@@]1(O)[C@H]2Cc3ccc(O)c4c3[C@@]1(CCN2CC1CC1)[C@H]5O4 .
[A] 13

[Q] Now consider CCn1cc(-c2ccnc3[nH]c(-c4cccc(CN(C)C)c4)cc23)c(-c2ccc(NC(=O)N(C)C)cc2)n1 .
[A] 44

[Q] Now consider C=CCn1c(=O)c2cnc(Nc3ccc(N4CCN(C)CC4)cc3)nc2n1-c1cccc(C(C)(C)O)n1 .
[A] 29

[Q] Now consider COc1ccc(S(=O)(=O)N(CCO)c2ccccc2CN(C)C/C=C/c2ccc(Cl)cc2)cc1.O=P(O)(O)O .
[A] 44

[Q] Now consider COC(=N)c1nc2ccc3ncnc(Nc4ccc(OC)cc4F)c3c2s1 .
[A] 30
